// data source = patent US20260317324A1

# target_or_test_system: BRAF G469A (Homo sapiens, UniProt P15056, G469A)
# Construct: Horizon Discovery (HCT-116 BRAF−/− cells); host or cells: HCT-116 BRAF−/− cells, clone 34, lentiviral transduction
# Sequence (P15056 whole entry G469A): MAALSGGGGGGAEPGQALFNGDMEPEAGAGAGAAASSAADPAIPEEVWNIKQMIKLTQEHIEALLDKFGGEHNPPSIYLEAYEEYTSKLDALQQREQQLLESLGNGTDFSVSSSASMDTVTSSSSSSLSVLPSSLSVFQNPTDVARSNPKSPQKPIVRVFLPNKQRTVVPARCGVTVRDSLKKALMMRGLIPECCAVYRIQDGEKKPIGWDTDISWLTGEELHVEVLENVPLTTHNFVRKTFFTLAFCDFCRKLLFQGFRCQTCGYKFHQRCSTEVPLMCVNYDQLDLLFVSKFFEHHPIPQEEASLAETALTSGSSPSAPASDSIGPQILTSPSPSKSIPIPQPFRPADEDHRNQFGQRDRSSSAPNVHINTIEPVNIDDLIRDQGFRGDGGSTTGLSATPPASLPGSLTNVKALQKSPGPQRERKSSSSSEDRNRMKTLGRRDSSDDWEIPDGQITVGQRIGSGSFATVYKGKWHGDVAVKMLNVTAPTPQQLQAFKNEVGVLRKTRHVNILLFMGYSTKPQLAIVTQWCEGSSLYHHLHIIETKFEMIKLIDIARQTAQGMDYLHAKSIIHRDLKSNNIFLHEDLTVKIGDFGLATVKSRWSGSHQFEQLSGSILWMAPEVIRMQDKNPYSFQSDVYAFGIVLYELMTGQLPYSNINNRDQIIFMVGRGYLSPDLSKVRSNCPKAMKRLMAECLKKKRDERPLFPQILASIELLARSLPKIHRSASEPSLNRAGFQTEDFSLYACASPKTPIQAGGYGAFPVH
# assay_remarks: BRAF HiBiT degradation assay, C-terminal HiBiT-tagged BRAF G469A overexpressed in HCT-116 BRAF−/− cells (clone 34), Nano-Glo HiBiT Lytic assay
# Type: cell-based
# measurement_conditions: HCT-116; Class 2; BRAF G469A; percentage protein degraded at maximal compound effect relative to DMSO
value_type: Dmax

// solved cases for Dmax follow
CCCS(=O)(=O)Nc1cccc(-c2nc(C(C)(C)C)sc2-c2ccnc(Nc3cccc(OC4CCN(C(=O)[C@@H]5CCN(c6ccc(C7CCC(=O)NC7=O)cn6)C5)CC4)c3)n2)c1F (mixture of isomers) = 30 to 70%
CCCS(=O)(=O)Nc1cccc(-c2nc(C3CCN(C(=O)C4(C)CCN(C(=O)C5CCN(c6ccc(C7CCC(=O)NC7=O)cc6)CC5)CC4)CC3)sc2-c2ccnc(NC(C)C)n2)c1F (racemic) = < 30%
CCCS(=O)(=O)Nc1cccc(-c2nc(C(C)(C)C)sc2-c2ccnc(Nc3ccc(N4CCN(C(=O)CC5CCN(c6ccc(NC7CCC(=O)NC7=O)cc6)CC5)CC4)c(F)c3)n2)c1F (racemic) = 30 to 70%

Enquiry: Reported Dmax for CCN(C)S(=O)(=O)Nc1cccc(-c2nc(C)sc2-c2ccnc(Nc3ccc(N4CCN(CC5(F)CCN(c6ccc(C7CCC(=O)NC7=O)cc6)CC5)CC4)cn3)n2)c1F (racemic) : what is it?
Return: 30 to 70%

Enquiry: Reported Dmax for CCCS(=O)(=O)Nc1cccc(-c2nc(C(C)(C)C)sc2-c2ccnc(Nc3ccc(C4CCN(CC5CCN(c6ccc(C(=O)NC7CCC(=O)NC7=O)cc6)CC5)CC4)cc3)n2)c1F (racemic) : what is it?
Return: < 30%

Enquiry: Reported Dmax for CCCS(=O)(=O)Nc1cccc(-c2cn(C3CCN(C(=O)C4(C)CCN(C(=O)C5CCN(c6ccc(C7CCC(=O)NC7=O)cn6)CC5)CC4)CC3)nc2-c2ccncc2)c1F (racemic) : what is it?
Return: 30 to 70%

Enquiry: Reported Dmax for CCCS(=O)(=O)Nc1cccc(-c2nc(C(C)(C)C)sc2-c2ccnc(Nc3ccc(N4CCN(C(=O)C5CCN(c6ccc(C7CCC(=O)NC7=O)cn6)CC5)CC4)c(F)c3)n2)c1F (racemic) : what is it?
Return: 30 to 70%

Enquiry: Reported Dmax for CCCS(=O)(=O)Nc1cccc(-c2nc(C(C)(C)C)sc2-c2ccnc(Nc3cnn(CC4CCN(CC5CCN(c6ccc7c(=O)n(C8CCC(=O)NC8=O)ccc7c6)CC5)CC4)c3)n2)c1F (racemic) : what is it?
Return: < 30%

Enquiry: Reported Dmax for CCN(C)S(=O)(=O)Nc1cccc(-c2nc(C3CCN(C(=O)C4CCN(C(=O)C5CCN(c6ccc(C7CCC(=O)NC7=O)cn6)CC5)CC4)CC3)sc2-c2ccnc(N)n2)c1F (racemic) : what is it?
Return: 30 to 70%

Enquiry: Reported Dmax for CCCS(=O)(=O)Nc1cccc(-c2nc(C3CCN(C(=O)C4CCN(C(=O)C5CCN(c6ccc(C7CCC(=O)NC7=O)cn6)CC5)CC4)CC3)sc2-c2ccnc(NC(C)C)n2)c1F (racemic) : what is it?
Return: 30 to 70%

====

# target_or_test_system: BRAF G466V (Homo sapiens, UniProt P15056, G466V)
# Construct: Horizon Discovery (HCT-116 BRAF−/− cells); host or cells: HCT-116 BRAF−/− cells, clone 8, lentiviral transduction
# Sequence (P15056 whole entry G466V): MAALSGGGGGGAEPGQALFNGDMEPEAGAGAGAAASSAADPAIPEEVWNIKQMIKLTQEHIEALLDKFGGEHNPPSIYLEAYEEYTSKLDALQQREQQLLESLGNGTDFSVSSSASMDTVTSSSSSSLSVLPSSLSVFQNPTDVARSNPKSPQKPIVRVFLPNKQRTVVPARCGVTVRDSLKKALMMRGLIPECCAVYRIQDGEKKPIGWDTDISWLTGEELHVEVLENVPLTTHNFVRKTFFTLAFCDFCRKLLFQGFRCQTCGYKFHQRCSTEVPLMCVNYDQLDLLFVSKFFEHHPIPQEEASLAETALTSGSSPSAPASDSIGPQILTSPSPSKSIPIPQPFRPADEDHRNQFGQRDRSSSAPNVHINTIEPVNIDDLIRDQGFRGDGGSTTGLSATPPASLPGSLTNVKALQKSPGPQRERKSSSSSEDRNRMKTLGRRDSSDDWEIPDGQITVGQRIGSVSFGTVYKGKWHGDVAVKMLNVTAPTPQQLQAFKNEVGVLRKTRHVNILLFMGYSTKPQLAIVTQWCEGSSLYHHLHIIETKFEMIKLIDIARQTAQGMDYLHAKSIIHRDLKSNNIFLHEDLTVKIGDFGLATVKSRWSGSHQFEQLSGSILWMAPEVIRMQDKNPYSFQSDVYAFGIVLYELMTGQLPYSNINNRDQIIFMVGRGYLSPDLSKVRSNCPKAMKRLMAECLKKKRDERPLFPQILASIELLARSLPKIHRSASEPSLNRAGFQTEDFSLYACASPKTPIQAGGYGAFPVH
# assay_remarks: BRAF HiBiT degradation assay, C-terminal HiBiT-tagged BRAF G466V overexpressed in HCT-116 BRAF−/− cells (clone 8), Nano-Glo HiBiT Lytic assay
# Format: cell-based
# measurement_conditions: HCT-116; BRAF G466V; percentage protein degraded at maximal compound effect relative to DMSO
value_type: Dmax

// solved cases for Dmax follow
CCCS(=O)(=O)Nc1cccc(-c2nc(C(C)(C)C)sc2-c2ccnc(Nc3cnn(C4CCN(CC[C@H]5CCN(c6ccc(C7CCC(=O)NC7=O)cn6)C5)CC4)c3)n2)c1F (mixture of isomers) [Compound 77] = < 30%
CCCS(=O)(=O)Nc1cccc(-c2nc(C)sc2-c2ccnc(Nc3ccc(C4CCN(C(=O)CC5CCN(c6ccc(NC7CCC(=O)NC7=O)cc6)CC5)CC4)cc3)n2)c1F (racemic) [Compound 44] = < 30%
CCN(C)S(=O)(=O)Nc1cccc(-c2nc(C(C)(C)C)sc2-c2ccnc(Nc3ccc(N4CCN(CC5CCN(c6ccc([C@H]7CCC(=O)NC7=O)cn6)CC5)CC4)cn3)n2)c1F [Compound 29] = > 70%
CCCS(=O)(=O)Nc1cccc(-c2cn(-c3ccc(N4CCN(CC5CCN(c6ccc([C@H]7CCC(=O)NC7=O)cn6)CC5)CC4)cc3)nc2-c2ccncc2)c1F [Compound 2] = 30 to 70%

Enquiry: BRAF G466V (Homo sapiens, UniProt P15056, G466V) / Dmax / CCCS(=O)(=O)Nc1cccc(-c2nc(C(C)(C)C)sc2-c2ccnc(Nc3cnn(CC4CCN(C(=O)[C@H]5CC[C@H](Oc6ccc(C7CCC(=O)NC7=O)cc6)CC5)CC4)c3)n2)c1F (mixture of isomers) [Compound 118] : value?
Return: < 30%

====

# target_or_test_system: BRAF G466V (Homo sapiens, UniProt P15056, G466V)
# Construct: Horizon Discovery (HCT-116 BRAF−/− cells); host or cells: HCT-116 BRAF−/− cells, clone 8, lentiviral transduction
# assay_remarks: BRAF HiBiT degradation assay, C-terminal HiBiT-tagged BRAF G466V overexpressed in HCT-116 BRAF−/− cells (clone 8), Nano-Glo HiBiT Lytic assay
# Assay type: cell-based
# measurement_conditions: HCT-116; BRAF G466V; percentage protein degraded at maximal compound effect relative to DMSO
Measured Dmax, listed per entry for reference.

// solved cases for Dmax follow
CCCS(=O)(=O)Nc1cccc(-c2nc(C(C)(C)C)sc2-c2ccnc(Nc3cnn(CC4CCN(C(=O)[C@@H]5CCN(c6ccc(C7CCC(=O)NC7=O)cn6)C5)CC4)c3)n2)c1F (mixture of isomers) = < 30%
CCCS(=O)(=O)Nc1cccc(-c2nc(C(C)(C)C)sc2-c2ccnc(Nc3cccc(OC4CCN(C(=O)C5CCN(c6cc(C7CCC(=O)NC7=O)ccn6)CC5)CC4)c3)n2)c1F (racemic) = < 30%
CCCS(=O)(=O)Nc1cccc(-c2nc(C3CCC4(CC3)CN(C(=O)C3CCN(c5ccc6c(c5)C(=O)N(C5CCC(=O)NC5=O)C6=O)CC3)C4)sc2-c2ccnc(N)n2)c1F (racemic) = 30 to 70%
CCN(C)S(=O)(=O)Nc1cccc(-c2nc(C(C)(C)C)sc2-c2ccnc(Nc3ccc(N4CCN(CC5CCN(c6ccc(C7CCC(=O)NC7=O)cn6)CC5)CC4)cn3)n2)c1F (racemic) = > 70%
CCN(C)S(=O)(=O)Nc1cccc(-c2nc(C3CCN(C(=O)C4CCN(C(=O)C5CCN(c6ccc(C7CCC(=O)NC7=O)cn6)CC5)CC4)CC3)sc2-c2ccnc(NC(C)C)n2)c1F (racemic) = 30 to 70%

Enquiry: Reported Dmax for CCCS(=O)(=O)Nc1cccc(-c2cn(-c3ccc(C4CCN(CC5CCN(c6ccc(C7CCC(=O)NC7=O)cn6)CC5)CC4)cc3)nc2-c2ccncc2)c1F (racemic) : what is it?
Return: 30 to 70%

Enquiry: Reported Dmax for CCCS(=O)(=O)Nc1cccc(-c2nc(C3CCN(C(=O)C4(C)CCN(C(=O)C5CCN(c6ccc(C7CCC(=O)NC7=O)cn6)CC5)CC4)CC3)sc2-c2ccncn2)c1F (racemic) : what is it?
Return: > 70%

Enquiry: Reported Dmax for CCCS(=O)(=O)Nc1cccc(-c2nc(C(C)(C)C)sc2-c2ccnc(Nc3ccc(N4CCN(C(=O)CC5CCN(c6ccc(C7CCC(=O)NC7=O)cn6)CC5)CC4)c(F)c3)n2)c1F (racemic) : what is it?
Return: < 30%

Enquiry: Reported Dmax for "CCCS(=O)(=O)Nc1cccc(-c2nc(C3CCN(C(=O)C4CCN(CC5CCN(c6ccc([C@H]7CCC(=O)NC7=O)cc6)CC5)CC4)CC3)sc2-c2ccnc(NC)n2)c1F" : what is it?
Return: 30 to 70%

Enquiry: Reported Dmax for CCCS(=O)(=O)Nc1cccc(-c2nc(C(C)(C)C)sc2-c2ccnc(Nc3ccc(C4CCN(C(=O)CN5CCN(c6cc(C7CCC(=O)NC7=O)ccn6)CC5)CC4)cc3)n2)c1F (racemic) : what is it?
Return: < 30%

====

# target_or_test_system: BRAF V600E (Homo sapiens, UniProt P15056, V600E)
# Construct: endogenous C-terminal HiBiT fusion tag on BRAF V600E allele; endogenous in cells; host or cells: A375 clone 1F10 (CRISPR-Cas9 knock-in of the HiBiT tag; parental A375 from ATCC)
# Sequence (P15056 whole entry V600E, the tested form may be a part): as the sequence (P15056 whole entry G469A) above, with A469G, V600E counted along it
# assay_remarks: BRAF HiBiT degradation assay, C-terminal HiBiT-tagged BRAF V600E A375 cells (clone 1F10), Nano-Glo HiBiT Lytic assay
# Type: cell-based
# measurement_conditions: A375 (BRAF V600E); DC50 at 50%: fitted conc. at Y=50
value_type: DC50

CCCS(=O)(=O)Nc1cccc(-c2nc(C3CCN(C(=O)C4CCN(CC5CCN(c6ccc(C7CCC(=O)NC7=O)cc6)CC5)CC4)CC3)sc2-c2ccnc(N)n2)c1F (racemic) = < 10 nM
CCCS(=O)(=O)Nc1cccc(-c2nc(C(C)(C)C)sc2-c2ccnc(Nc3ccc(C4CCN(C(=O)CCCCCc5ccc6c(c5)C(=O)N(C5CCC(=O)NC5=O)C6)CC4)cc3)n2)c1F (racemic) = 10 to 50 nM
CCCS(=O)(=O)Nc1cccc(-c2nc(C(C)(C)C)sc2-c2ccnc(N[C@H]3CC[C@H](CN4CCN(CC5CCN(c6ccc([C@@H]7CCC(=O)NC7=O)cc6)CC5)CC4)CC3)n2)c1F = 10 to 50 nM
CCCS(=O)(=O)Nc1cccc(-c2nc(C3CCC4(CC3)CN(C(=O)C3CCN(c5ccc6c(c5)C(=O)N(C5CCC(=O)NC5=O)C6=O)CC3)C4)sc2-c2ccnc(N)n2)c1F (racemic) = < 10 nM

# context switch: different compound, same DC50
Enquiry: Reported DC50 for CCCS(=O)(=O)Nc1cccc(-c2nc(C3CCN(C(=O)C4CCN(C(=O)C5CCN(c6ccc(C7CCC(=O)NC7=O)cn6)CC5)CC4)CC3)sc2-c2ccnc(NC(C)C)n2)c1F (racemic) : what is it?
Return: < 10 nM
